Molecular target: NPR-3 (Caenorhabditis elegans)
Construct: expressed in transfected cells; host or cells: HEK293
Sequence (P90745 1-376): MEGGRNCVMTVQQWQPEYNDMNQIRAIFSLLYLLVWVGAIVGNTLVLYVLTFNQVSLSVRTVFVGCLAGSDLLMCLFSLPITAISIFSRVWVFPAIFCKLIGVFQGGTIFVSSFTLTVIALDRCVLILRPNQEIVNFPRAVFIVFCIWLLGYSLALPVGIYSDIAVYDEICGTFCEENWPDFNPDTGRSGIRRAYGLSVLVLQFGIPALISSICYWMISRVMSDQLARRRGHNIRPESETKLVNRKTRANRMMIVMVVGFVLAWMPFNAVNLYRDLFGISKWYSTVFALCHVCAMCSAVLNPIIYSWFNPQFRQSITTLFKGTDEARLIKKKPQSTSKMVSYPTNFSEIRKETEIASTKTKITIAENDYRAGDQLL
Assay: IP accumulation assay, chimeric GαΔ6qi4myr, NPR-3
Type: cell-based, C. elegans
Conditions: 0.1 µM peptide (Table S8), 1 h, HBSS + 20 mM LiCl; HEK293 receptor + GαΔ6qi4myr; HTRF IP-One; mean of >=3 independent experiments
Procedure: For measuring IP accumulation, HEK293 cells grown to 70–80% confluency in 6-well plates were transiently co-transfected using Metafectene Pro (2.5 μl/μg DNA; Biontex) with plasmids containing receptor and/or mock (empty pcDNA3.1) (for endogenous Gq-coupling) using 4 μg total DNA in a ratio of 3:1 following the manufacturer’s instructions. […] IP accumulation was measured with the HTRF-based IP-One Gq kit (Cisbio) on a microplate reader (Tecan Spark). […]
Parameter measured: IP accumulation with GαΔ6qi4myr, NPR-3

The value of IP accumulation with GαΔ6qi4myr, NPR-3 recorded for AGSDPNFLRF-NH2 [FLP-1-2, C. elegans FMRFamide-like peptide, C-terminally amidated, synthesized by SPPS] when tested on NPR-3 (Caenorhabditis elegans) reads 0.96 x-fold of basal

The value of IP accumulation with GαΔ6qi4myr, NPR-3 recorded for NPENDTPFGTMRF-NH2 [FLP-3-4, C. elegans FMRFamide-like peptide, C-terminally amidated, synthesized by SPPS] when tested on NPR-3 (Caenorhabditis elegans) reads 0.97 x-fold of basal

The value of IP accumulation with GαΔ6qi4myr, NPR-3 recorded for ASPSFIRF-NH2 [FLP-4-2, C. elegans FMRFamide-like peptide, C-terminally amidated, synthesized by SPPS] when tested on NPR-3 (Caenorhabditis elegans) reads 0.92 x-fold of basal

The value of IP accumulation with GαΔ6qi4myr, NPR-3 recorded for APKPKFIRF-NH2 [FLP-5-1, C. elegans FMRFamide-like peptide, C-terminally amidated, synthesized by SPPS] when tested on NPR-3 (Caenorhabditis elegans) reads 0.88 x-fold of basal
